# test target: recombinant human ERβ (Homo sapiens, UniProt Q92731)
# Construct: purchased PanVera Corporation (Madison, Wis.); host or cells: baculovirus-mediated expression system
# Sequence (Q92731 whole entry): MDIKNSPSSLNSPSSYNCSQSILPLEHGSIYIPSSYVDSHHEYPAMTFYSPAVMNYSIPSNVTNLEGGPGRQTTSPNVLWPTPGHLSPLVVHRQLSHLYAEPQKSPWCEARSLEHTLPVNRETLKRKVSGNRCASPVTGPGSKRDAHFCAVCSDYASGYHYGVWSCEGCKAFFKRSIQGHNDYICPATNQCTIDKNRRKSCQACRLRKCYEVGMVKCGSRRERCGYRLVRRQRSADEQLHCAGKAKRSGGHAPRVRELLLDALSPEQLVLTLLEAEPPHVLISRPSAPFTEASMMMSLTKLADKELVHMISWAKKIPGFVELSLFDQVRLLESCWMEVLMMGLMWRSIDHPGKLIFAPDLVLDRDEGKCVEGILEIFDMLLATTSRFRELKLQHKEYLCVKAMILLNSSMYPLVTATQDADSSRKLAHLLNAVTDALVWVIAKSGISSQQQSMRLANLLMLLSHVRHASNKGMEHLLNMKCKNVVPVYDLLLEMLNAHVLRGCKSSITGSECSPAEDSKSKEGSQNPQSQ
# protocol notes: ERβ binding assay: competition of [3H]E2 binding by competing estrogens
# stated conditions: read-out: ERβ IC50
pIC50: −log10 of the molar value.
Rule: pIC50 under 6 gives rule not met, otherwise rule met.

Inquiry: Reported pIC50 at or above 6? CC12CCC3c4ccc(O)c(N)c4CCC3C1CCC2=O (centres unmarked) [4-NH2-E1, 4-Aminoestrone]
Reply text: rule not met

Inquiry: Reported pIC50 at or above 6? CC12CCC3c4ccc(O)cc4C(=O)CC3C1CC(O)C2O (centres unmarked)
Reply text: rule met

Inquiry: Reported pIC50 at or above 6? C[C@]12CC[C@@H]3c4ccc(OS(=O)(=O)O)cc4CC[C@H]3[C@@H]1CCC2=O [E1-3-sulfate, Estrone 3-sulfate]
Reply text: rule not met

Inquiry: Reported pIC50 at or above 6? CC12CCC3c4cc(Br)c(O)cc4CCC3C1CCC2O (centres unmarked) [2-Br-E2, 2-Bromoestradiol]
Reply text: rule not met

Inquiry: Reported pIC50 at or above 6? C[C@]12CC[C@@H]3c4ccc(O)cc4C[C@@H](CCCCCCO)[C@H]3[C@@H]1CC[C@@H]2O [E2-7α-(CH2)6OH, 7α-(6-Hydroxyhexanyl)-17β-estradiol]
Reply text: rule met

Inquiry: Reported pIC50 at or above 6? C[C@]12CC[C@@H]3c4ccc(O)cc4CC[C@H]3[C@@H]1CC(=O)[C@@H]2O [16-Keto-E2, 16-Ketoestradiol]
Reply text: rule met

Inquiry: Reported pIC50 at or above 6? C[C@]12CC[C@@H]3c4ccc(O)cc4CC[C@H]3[C@@H]1[C@@H](O)[C@@H](O)[C@@H]2O [15α-OH-E3, 15α-Hydroxyestriol (Estetrol)]
Reply text: rule met

Inquiry: Reported pIC50 at or above 6? C[C@]12C[C@@H](O)[C@@H]3c4ccc(O)cc4CC[C@H]3[C@@H]1CC[C@@H]2O [11α-OH-E2, 11α-Hydroxyestradiol]
Reply text: rule not met

Inquiry: Reported pIC50 at or above 6? COc1cc2c(cc1OC)C1CCC3(C)C(O)CCC3C1CC2 (stereo not drawn) [2,3-diMeO-E2, 17β-Estradiol 2,3-dimethyl ether]
Reply text: rule not met

Inquiry: Reported pIC50 at or above 6? C[C@]12C[C@H](O)[C@@H]3c4ccc(O)cc4CC[C@H]3[C@@H]1CCC2=O [11β-OH-E1, 11β-Hydroxyestrone]
Reply text: rule not met
